- System: GABAAR
- Recorded conditions: 3H-flunitrazepam, rat brain extract
Measured endpoint: GABAAR binding (in words)

[[record]]
chemical_string = "CCOC(=O)c1ncn2c1C1(CCCC1)N=C(c1ccccc1F)c1cc(Br)ccc1-2"
measured_endpoint = "GABAAR binding (in words)"
val = "not active"

[[record]]
chemical_string = "O=C1Nc2ccc(Br)cc2C(c2ccccc2F)=NC12CCCCC2"
measured_endpoint = "GABAAR binding (in words)"
val = "no significant binding"

[[record]]
chemical_string = "CCOC(=O)c1ncn2c1C1(CC1)N=C(c1ccccc1F)c1cc(Cl)ccc1-2"
measured_endpoint = "GABAAR binding (in words)"
val = "weak GABAAR ligands"

[[record]]
chemical_string = "CCOC(=O)c1ncn2c1C1(CCCCC1)N=C(c1ccccc1F)c1cc(Br)ccc1-2"
measured_endpoint = "GABAAR binding (in words)"
val = "not active"

[[record]]
chemical_string = "O=C(O)c1ncn2c1C1(CC1)N=C(c1ccccc1F)c1cc(C3CC3)ccc1-2"
measured_endpoint = "GABAAR binding (in words)"
val = "weak GABAAR ligands"

[[record]]
chemical_string = "O=C(O)c1ncn2c1C1(CC1)N=C(c1ccccc1F)c1cc(Cl)ccc1-2"
measured_endpoint = "GABAAR binding (in words)"
val = "weak GABAAR ligands"

[[record]]
chemical_string = "O=C1Nc2ccc(Br)cc2C(c2ccccc2F)=NC12CCCC2"
measured_endpoint = "GABAAR binding (in words)"
val = "no significant binding"


====

List of Papp values.
- Protocol notes: in vitro
- Recorded conditions: PAMPA, pH 7.4
Measured endpoint: Papp (×10⁻⁶ cm/s)

[[record]]
molecule = "CCOC(=O)c1ncn2c1C1(CCCCC1)N=C(c1ccccc1F)c1cc(Br)ccc1-2 [4f]"
measured_endpoint = "Papp"
unit_descriptor = "×10⁻⁶ cm/s"
val = 1

[[record]]
molecule = "O=C1Nc2ccc(Br)cc2C(c2ccccc2F)=NC12CCCC2 [3e]"
measured_endpoint = "Papp"
unit_descriptor = "×10⁻⁶ cm/s"
val = 0.158

[[record]]
molecule = "O=C1Nc2ccc(Br)cc2C(c2ccccc2F)=NC12CCCCC2 [3f]"
measured_endpoint = "Papp"
unit_descriptor = "×10⁻⁶ cm/s"
val = 0.0794

[[record]]
molecule = "CCOC(=O)c1ncn2c1C1(CC1)N=C(c1ccccc1F)c1cc(C3CC3)ccc1-2 [4i]"
measured_endpoint = "Papp"
unit_descriptor = "×10⁻⁶ cm/s"
val = 12.6

[[record]]
molecule = "CCOC(=O)c1ncn2c1C1(CCC1)N=C(c1ccccc1F)c1cc(Br)ccc1-2 [4d]"
measured_endpoint = "Papp"
unit_descriptor = "×10⁻⁶ cm/s"
val = 6.31

[[record]]
molecule = "CCOC(=O)c1ncn2c1C1(CCCC1)N=C(c1ccccc1F)c1cc(Br)ccc1-2 [4e]"
measured_endpoint = "Papp"
unit_descriptor = "×10⁻⁶ cm/s"
val = 1.58

[[record]]
molecule = "O=C1Nc2ccc(Br)cc2C(c2ccccc2F)=NC12CCC2 [3d]"
measured_endpoint = "Papp"
unit_descriptor = "×10⁻⁶ cm/s"
val = 3.16

[[record]]
molecule = "CCOC(=O)c1ncn2c1C1(CC1)N=C(c1ccccc1F)c1cc(Cl)ccc1-2 [4g]"
measured_endpoint = "Papp"
unit_descriptor = "×10⁻⁶ cm/s"
val = 2.51

